protein stability index values by entry
B1: ZNF649 (parent)
chain: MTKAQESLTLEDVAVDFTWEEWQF

variants of: B1; test: protein stability index of a GFP-peptide fusion (GPS, HEK-293T) (PSI 1-6); higher = more stable; details: c terminus: a fixed tail appended;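 further: lentivirally expressed fusions sorted by FACS into six bins by GFP to DsRed ratio, PSI derived from sequencing read proportions per bin multiplied by bin number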

{"mutation": "D12I", "protein stability index": 2.95}
{"mutation": "Q5T", "protein stability index": 3.04}
{"mutation": "M1L", "protein stability index": 2.94}
